# Kd listing for each entry below
target_or_system: Cys-HLA (Staphylococcus aureus)

Ma8D05 (VHH) VHH: QVQLVESGGGLVQPGGSLRLSCAASPASGFTLDLYTIAWFLQAPGKEREGVSAISLSDEITYYSDTVKGRFTISRDSAKNTVFLQMDRLKPEDTGVYYCAIGAFDFILKEADADYWGQGTQVTVSS = 1 nM
Ma7A07 (VHH) VHH: QVQLVESGGGLVQPGGSLRLSCAASGFTLGDYTLGWFRQAPGKQREGVSSIASSALSIYIADSVKGRFTISRDDAKNTIYLHMNNLKPEDTGVYYCARGVDSWRWVPSAMDLWGKGTLVTVSS = ≤ 0.01 nM

Reported Kd for Ma7E01 (VHH) VHH: QVQLVESGGGSVQAGDSLSLSCVASERTFSNYAMGWFRQAPGKERHFVAVINPIGEETWYPDFAKGRFTISRDNAKNTLYLQMNSLKPEDTAVYYCAATDPRSYWRIWEHEFDYWGQGTQVTVSS was ≤ 0.01 nM

Reported Kd for Ma7A08 (VHH) VHH: QVQLVESGGGLVQPGGSLTLSCAASGFTLGDYTLGWFRQAPGKQREGVSSIASSVLSVYIADSVKGRFTISRDDAKNTIYLHMNNLKPEDTGVYYCARGVDSWRWVPSAMDLWGKGTLVTVSS was ≤ 0.01 nM

Reported Kd for Ma7C02 (VHH) VHH: QVQLVESGGGLVQAGGSLRLSCAASGRTFSDYAMGWFRQAAGKDRDFVAVITRSGDSTYYPDSTKGRFTISRDNAKNTMYLQMNSLKPEDTARYYCAATDPTNYWRIWEHEFDYWGQGTQVTVSS was 0.09 nM

Reported Kd for Ma8A05 (VHH) VHH: QVQLVESGGGLVQPGGSLRLSCAASPASGFTLDLYTIAWFLQAPGKEREGVSAISLSDEITYYSDAVKGRFTISRDSAKNTVFLQMDRLKPEDTGVYYCAIGAFDFILKEADADYWGQGTQVTVSS was 0.6 nM

Reported Kd for Bm28H01 (VHH) VHH: QVQLVESGGGLVQPGGSLTLSCAASGFTLGDRTLGWFRQVAGKQREGVASIASGVLSAYIADSVKGRFTISRDDAKNTIYLHMNNLKPDDTGVYYCARGVDSWRWVPSTMDLWGKGILVTVSS was ≤ 0.01 nM
